Tested on: Serum
Assay: Nitric oxide release in rat serum containing phosphate buffer at pH 7.4 incubated at 37 degC after 1.5 hrs
Conditions: pH 7.4, 1.5 h
READOUT_NAME: Activity (%)

Reference set (2 entries):
COMPOUND	QUANTITY_UNIT	Activity
CC(=O)OCO/N=[N+](\[O-])N1CCC[C@H]1COC(=O)C(C)c1ccc(CC(C)C)cc1 (some centres undefined)	%	79.5
COc1ccc2c(c1)c(CC(=O)OC[C@@H]1CCCN1/[N+]([O-])=N/OCOC(C)=O)c(C)n2C(=O)c1ccc(Cl)cc1	%	80.7

P. [Na+].[O-]/N=[N+](\[O-])N1CCC[C@H]1CO
Q. CC(=O)OCO/N=[N+](\[O-])N1CCC[C@H]1COC(=O)c1ccccc1OC(C)=O
Of P and Q , which shows the smaller Activity value? Select an item and report its label. Q

----------
Assay: Nitric oxide release in phosphate buffer at pH 7.4 incubated at 37 degC after 1.5 hrs
Set-up: concentration or dose not given beside the values
Details: pH 7.4, 1.5 h
READOUT_NAME: Activity (%)

COMPOUND	Activity / %
CC(=O)OCO/N=[N+](\[O-])N1CCC[C@H]1COC(=O)c1ccccc1OC(C)=O	7.4
O=[N+]([O-])OCC(CO[N+](=O)[O-])O[N+](=O)[O-]	2.8
[Na+].[O-]/N=[N+](\[O-])N1CCC[C@H]1CO	84.5
CC(C)Cc1ccc(C(C)C(=O)OC(CO[N+](=O)[O-])CO[N+](=O)[O-])cc1 (stereo not drawn)	3.4
COc1ccc2c(c1)c(CC(=O)OC(CO[N+](=O)[O-])CO[N+](=O)[O-])c(C)n2C(=O)c1ccc(Cl)cc1	3.8

A. CC(=O)OCO/N=[N+](\[O-])N1CCC[C@H]1COC(=O)C(C)c1ccc(CC(C)C)cc1 (stereo partly drawn)
B. COc1ccc2c(c1)c(CC(=O)OC[C@@H]1CCCN1/[N+]([O-])=N/OCOC(C)=O)c(C)n2C(=O)c1ccc(Cl)cc1
I need your help: which of the pair A , B has higher Activity? To answer, give the label that identifies your chosen option. B
(B: 7.9%, A: 4.4%)

----------
Test: Selectivity ratio of IC50 for ovine COX1 to IC50 for human COX2
This section presents molecules with their documented Ratio IC50 values.

These recorded examples may help you get a feel for the data.
MOLECULE	Ratio IC50
CC(=O)OCO/N=[N+](\[O-])N1CCC[C@H]1COC(=O)c1ccccc1OC(C)=O	> 45
CC(=O)OCO/N=[N+](\[O-])N1CCC[C@H]1COC(=O)C(C)c1ccc(CC(C)C)cc1 (stereo partly specified)	> 15
COc1ccc2c(c1)c(CC(=O)OC(CO[N+](=O)[O-])CO[N+](=O)[O-])c(C)n2C(=O)c1ccc(Cl)cc1	> 166
CC(C)Cc1ccc(C(C)C(=O)OC(CO[N+](=O)[O-])CO[N+](=O)[O-])cc1 (stereo unspecified)	> 58
CC(=O)Oc1ccccc1C(=O)OC(CO[N+](=O)[O-])CO[N+](=O)[O-]	> 13

// query Ratio IC50 value for entry `COc1ccc2c(c1)c(CC(=O)OC[C@@H]1CCCN1/[N+]([O-])=N/OCOC(C)=O)c(C)n2C(=O)c1ccc(Cl)cc1` > 10

----------
Assay: Nitric oxide release in phosphate buffer containing 5 mM L-cysteine at pH 7.4 incubated at 37 degC after 1.5 hrs
Details: pH 7.4, 1.5 h
READOUT_NAME: Activity (%)

COMPOUND	QUANTITY_UNIT	ASSAY_VALUE
CC(=O)Oc1ccccc1C(=O)OC(CO[N+](=O)[O-])CO[N+](=O)[O-]	%	7.8
CC(C)Cc1ccc(C(C)C(=O)OC(CO[N+](=O)[O-])CO[N+](=O)[O-])cc1 (centres undefined)	%	6.8
O=[N+]([O-])OCC(CO[N+](=O)[O-])O[N+](=O)[O-]	%	10.1
COc1ccc2c(c1)c(CC(=O)OC(CO[N+](=O)[O-])CO[N+](=O)[O-])c(C)n2C(=O)c1ccc(Cl)cc1	%	7.4
